- COND: in isopentanol, 272.15 K
PARAMETER: solubility (mole fraction)
Please give only the number in your answer, with no unit.

The molecule listed as C=CC(=O)NC(C)(C)CC(C)=O shows solubility (mole fraction) equal to 0.154

###

- COND: in n-propanol, 283.15 K
PARAMETER: solubility (mole fraction)
Please give only the number in your answer, with no unit.

The compound listed as C=CC(=O)NC(C)(C)CC(C)=O shows solubility (mole fraction) equal to 0.269

###

- COND: in n-propanol, 293.35 K
PARAMETER: solubility (mole fraction)
Please give only the number in your answer, with no unit.

The compound listed as C=CC(=O)NC(C)(C)CC(C)=O shows solubility (mole fraction) equal to 0.381

###

- COND: in n-butanol, 308.15 K
PARAMETER: solubility (mole fraction)
Please give only the number in your answer, with no unit.

The molecule listed as C=CC(=O)NC(C)(C)CC(C)=O shows solubility (mole fraction) equal to 0.579

###

- COND: in ethyl formate, 288.45 K
PARAMETER: solubility (mole fraction)

The molecule listed as C=CC(=O)NC(C)(C)CC(C)=O shows solubility (mole fraction) equal to 0.321

###

- COND: in methanol, 303.15 K
PARAMETER: solubility (mole fraction)
Please give only the number in your answer, with no unit.

The compound listed as C=CC(=O)NC(C)(C)CC(C)=O shows solubility (mole fraction) equal to 0.531

###

- COND: in methyl acetate, 323.15 K
PARAMETER: solubility (mole fraction)
Please give only the number in your answer, with no unit.

The compound listed as C=CC(=O)NC(C)(C)CC(C)=O shows solubility (mole fraction) equal to 0.869

###

- COND: in ethyl acetate, 313.15 K
PARAMETER: solubility (mole fraction)
Please give only the number in your answer, with no unit.

The compound listed as C=CC(=O)NC(C)(C)CC(C)=O shows solubility (mole fraction) equal to 0.645

###

- COND: in acetone, 272.05 K
PARAMETER: solubility (mole fraction)
Please give only the number in your answer, with no unit.

The molecule listed as C=CC(=O)NC(C)(C)CC(C)=O shows solubility (mole fraction) equal to 0.207

###

- COND: in methyl acetate, 288.45 K
PARAMETER: solubility (mole fraction)
Please give only the number in your answer, with no unit.

The compound listed as C=CC(=O)NC(C)(C)CC(C)=O shows solubility (mole fraction) equal to 0.343

###

- COND: in 2-pentanone, 298.15 K
PARAMETER: solubility (mole fraction)
Please give only the number in your answer, with no unit.

The compound listed as C=CC(=O)NC(C)(C)CC(C)=O shows solubility (mole fraction) equal to 0.442

###

- COND: in ethanol, 308.15 K
PARAMETER: solubility (mole fraction)
Please give only the number in your answer, with no unit.

The molecule listed as C=CC(=O)NC(C)(C)CC(C)=O shows solubility (mole fraction) equal to 0.576

###

- COND: in 2-butanone, 313.15 K
PARAMETER: solubility (mole fraction)
Please give only the number in your answer, with no unit.

The compound listed as C=CC(=O)NC(C)(C)CC(C)=O shows solubility (mole fraction) equal to 0.704

###

- COND: in methyl acetate, 308.15 K
PARAMETER: solubility (mole fraction)
Please give only the number in your answer, with no unit.

The compound listed as C=CC(=O)NC(C)(C)CC(C)=O shows solubility (mole fraction) equal to 0.6

###

- COND: in 2-butanone, 283.25 K
PARAMETER: solubility (mole fraction)
Please give only the number in your answer, with no unit.

The compound listed as C=CC(=O)NC(C)(C)CC(C)=O shows solubility (mole fraction) equal to 0.321

###

- COND: in methanol, 283.15 K
PARAMETER: solubility (mole fraction)
Please give only the number in your answer, with no unit.

The compound listed as C=CC(=O)NC(C)(C)CC(C)=O shows solubility (mole fraction) equal to 0.327

###

- COND: in isopropanol, 283.15 K
PARAMETER: solubility (mole fraction)
Please give only the number in your answer, with no unit.

The compound listed as C=CC(=O)NC(C)(C)CC(C)=O shows solubility (mole fraction) equal to 0.238

###

- COND: in isobutanol, 303.25 K
PARAMETER: solubility (mole fraction)

The compound listed as C=CC(=O)NC(C)(C)CC(C)=O shows solubility (mole fraction) equal to 0.529

###

- COND: in acetone, 278.25 K
PARAMETER: solubility (mole fraction)

The compound listed as C=CC(=O)NC(C)(C)CC(C)=O shows solubility (mole fraction) equal to 0.252

###

- COND: in 2-pentanone, 308.15 K
PARAMETER: solubility (mole fraction)
Please give only the number in your answer, with no unit.

The compound listed as C=CC(=O)NC(C)(C)CC(C)=O shows solubility (mole fraction) equal to 0.581

###

- COND: in methanol, 278.25 K
PARAMETER: solubility (mole fraction)
Please give only the number in your answer, with no unit.

The molecule listed as C=CC(=O)NC(C)(C)CC(C)=O shows solubility (mole fraction) equal to 0.287

###

- COND: in n-hexanol, 308.15 K
PARAMETER: solubility (mole fraction)
Please give only the number in your answer, with no unit.

The compound listed as C=CC(=O)NC(C)(C)CC(C)=O shows solubility (mole fraction) equal to 0.581

###

- COND: in n-pentanol, 297.65 K
PARAMETER: solubility (mole fraction)

The compound listed as C=CC(=O)NC(C)(C)CC(C)=O shows solubility (mole fraction) equal to 0.391

###

- COND: in n-butanol, 293.35 K
PARAMETER: solubility (mole fraction)

The compound listed as C=CC(=O)NC(C)(C)CC(C)=O shows solubility (mole fraction) equal to 0.362

###

- COND: in n-pentanol, 288.15 K
PARAMETER: solubility (mole fraction)
Please give only the number in your answer, with no unit.

The compound listed as C=CC(=O)NC(C)(C)CC(C)=O shows solubility (mole fraction) equal to 0.276

###

- COND: in ethanol, 313.65 K
PARAMETER: solubility (mole fraction)
Please give only the number in your answer, with no unit.

The compound listed as C=CC(=O)NC(C)(C)CC(C)=O shows solubility (mole fraction) equal to 0.671

###

- COND: in n-pentanol, 303.15 K
PARAMETER: solubility (mole fraction)
Please give only the number in your answer, with no unit.

The compound listed as C=CC(=O)NC(C)(C)CC(C)=O shows solubility (mole fraction) equal to 0.469

###

- COND: in 2-pentanone, 293.35 K
PARAMETER: solubility (mole fraction)
Please give only the number in your answer, with no unit.

The compound listed as C=CC(=O)NC(C)(C)CC(C)=O shows solubility (mole fraction) equal to 0.385

###

- COND: in ethyl acetate, 288.45 K
PARAMETER: solubility (mole fraction)
Please give only the number in your answer, with no unit.

The molecule listed as C=CC(=O)NC(C)(C)CC(C)=O shows solubility (mole fraction) equal to 0.299

###

- COND: in isobutanol, 288.45 K
PARAMETER: solubility (mole fraction)
Please give only the number in your answer, with no unit.

The compound listed as C=CC(=O)NC(C)(C)CC(C)=O shows solubility (mole fraction) equal to 0.351

###

- COND: in 2-pentanone, 272.05 K
PARAMETER: solubility (mole fraction)
Please give only the number in your answer, with no unit.

The compound listed as C=CC(=O)NC(C)(C)CC(C)=O shows solubility (mole fraction) equal to 0.2

###

- COND: in methanol, 308.15 K
PARAMETER: solubility (mole fraction)

The compound listed as C=CC(=O)NC(C)(C)CC(C)=O shows solubility (mole fraction) equal to 0.594

###

- COND: in 2-pentanone, 313.15 K
PARAMETER: solubility (mole fraction)
Please give only the number in your answer, with no unit.

The compound listed as C=CC(=O)NC(C)(C)CC(C)=O shows solubility (mole fraction) equal to 0.658

###

- COND: in methanol, 318.85 K
PARAMETER: solubility (mole fraction)
Please give only the number in your answer, with no unit.

The compound listed as C=CC(=O)NC(C)(C)CC(C)=O shows solubility (mole fraction) equal to 0.746

###

- COND: in isobutanol, 293.35 K
PARAMETER: solubility (mole fraction)
Please give only the number in your answer, with no unit.

The molecule listed as C=CC(=O)NC(C)(C)CC(C)=O shows solubility (mole fraction) equal to 0.403

###

- COND: in 2-pentanone, 288.45 K
PARAMETER: solubility (mole fraction)
Please give only the number in your answer, with no unit.

The molecule listed as C=CC(=O)NC(C)(C)CC(C)=O shows solubility (mole fraction) equal to 0.334

###

- COND: in isopropanol, 308.15 K
PARAMETER: solubility (mole fraction)
Please give only the number in your answer, with no unit.

The molecule listed as C=CC(=O)NC(C)(C)CC(C)=O shows solubility (mole fraction) equal to 0.562
